# Test target: Intestinal-type alkaline phosphatase (Homo sapiens) (UniProt P09923)
# Sequence (P09923 whole entry, looked up): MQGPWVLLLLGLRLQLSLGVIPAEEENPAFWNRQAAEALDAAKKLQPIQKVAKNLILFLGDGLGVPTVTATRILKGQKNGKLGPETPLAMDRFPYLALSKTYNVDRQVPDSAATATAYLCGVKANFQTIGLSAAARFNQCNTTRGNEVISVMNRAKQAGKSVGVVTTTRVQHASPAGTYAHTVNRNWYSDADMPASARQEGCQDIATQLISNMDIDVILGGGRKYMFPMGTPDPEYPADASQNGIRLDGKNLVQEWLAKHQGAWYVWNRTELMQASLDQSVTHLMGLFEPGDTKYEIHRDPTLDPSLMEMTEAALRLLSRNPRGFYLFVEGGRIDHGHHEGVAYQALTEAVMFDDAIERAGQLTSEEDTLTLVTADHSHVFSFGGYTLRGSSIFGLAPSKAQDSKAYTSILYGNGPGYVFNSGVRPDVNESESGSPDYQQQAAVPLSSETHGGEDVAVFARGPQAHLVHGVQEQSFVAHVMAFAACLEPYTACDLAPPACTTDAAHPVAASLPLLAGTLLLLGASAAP
# Assay text: blockers of intestinal alkaline phosphatase activity – biochemical, luminescence, uHTS, primary screen (AID 2544);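 also: plate controls were DMSO wells with enzyme for no effect and no-enzyme buffer wells for full effect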
# Measurement parameters: purified IAP, CDP-Star luminescence, 30 min; at 10 µM; active compounds read high
The whole screen tested about 330,000 compounds, of which about 390 (0.12%) were called active. Shown is part of a subset that was picked to be rich in actives.
Provide the reported inhibition of each item.
Provide the reading as a plain figure in %.

Prompt line: Given COc1ccc(Nc2cc(=O)n(-c3ccccc3)c3c2c(=O)n(C)c(=O)n3C)cc1 , state its recorded inhibition.
Response line: 3.3

Prompt line: Same again, this time with FC(F)(F)c1ccnc(Oc2ccc(C3=NCCS3)cc2)c1
Response line: 10.4

Prompt line: Same again, this time with CC1(C)O[C@@H]2[C@H](O1)[C@@H](COS(=O)(=O)O)O[C@H]2n1cnc2c(=O)[nH]cnc21
Response line: -9

Prompt line: Same again, this time with COc1cc([N+](=O)[O-])ccc1NC(=S)N1CCN(c2ccccn2)CC1
Response line: 6.4

Prompt line: Same again, this time with Cc1ccc(C(=O)N(CC(=O)NC2CCCC2)c2ccc(F)cc2)s1
Response line: -20.5

Prompt line: Same again, this time with COc1ccc(/C=C2\N=C3CCCN3C2=O)cc1
Response line: 7.3

Prompt line: Same again, this time with COc1ccccc1C(=O)N(C1=NC(C)CS1)c1ccc(Cl)cc1 (stereo not given)
Response line: -3

Prompt line: Same again, this time with O=C(CSc1nnc(CNC(=O)c2ccc(F)cc2)o1)Nc1ccc2c(c1)OCO2
Response line: -13.1

Prompt line: Same again, this time with O=C(CN1C(=O)NC(Cc2c[nH]c3ccccc23)C1=O)Nc1ccccc1C(F)(F)F (stereo not given)
Response line: -22.4

Prompt line: Same again, this time with CCC(C)N(C(=O)COC(=O)C1C(C(=O)OC)=C(C)NC(C)=C1C(=O)OC)C1CCS(=O)(=O)C1 (stereo not given)
Response line: -1.2

Attribution: PubChem BioAssay AID2544
